# TARGET_UNDER_TEST: Smon0123 (Streptobacillus moniliformis, UniProt D1AWE0)
# Sequence (D1AWE0 entry or part of it): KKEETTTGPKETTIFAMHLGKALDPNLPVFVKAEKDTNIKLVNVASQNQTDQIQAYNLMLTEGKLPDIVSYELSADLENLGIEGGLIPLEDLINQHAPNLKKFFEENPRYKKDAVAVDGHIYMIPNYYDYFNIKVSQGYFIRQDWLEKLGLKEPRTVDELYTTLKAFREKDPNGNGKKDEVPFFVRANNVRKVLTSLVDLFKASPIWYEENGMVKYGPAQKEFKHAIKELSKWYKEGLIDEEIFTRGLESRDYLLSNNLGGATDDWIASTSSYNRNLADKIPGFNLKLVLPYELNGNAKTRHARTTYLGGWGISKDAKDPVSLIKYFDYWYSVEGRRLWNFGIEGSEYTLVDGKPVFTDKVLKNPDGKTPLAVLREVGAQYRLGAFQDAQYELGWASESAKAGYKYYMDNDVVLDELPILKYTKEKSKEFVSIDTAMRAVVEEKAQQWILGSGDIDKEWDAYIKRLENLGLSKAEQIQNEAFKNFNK
# TEST_DESCRIPTION: X-ray crystal structure; tryptophan fluorescence titration; DSF
# Assay type: binding
# Design: gene Smon_0123; Smon0123 (N-18/C-5) in the crystal; recombinant Smon0123 in solution
# COND: read-out: Kd
pKd: −log10 of the molar value.

COMPOUND | TARGET_UNDER_TEST | pKd
CC(=O)N[C@H]1C(O)O[C@H](CO)[C@H](O)[C@@H]1O[C@@H]1OC(C(=O)O)=C[C@H](O)[C@H]1O (stereo partly shown) | Smon0123 (Streptobacillus moniliformis, UniProt D1AWE0) | 6.20

* * *

# TARGET_UNDER_TEST: Smon0127 (Streptobacillus moniliformis)
# Construct: gene Smon_0127; recombinant Smon0127
# Sequence (D1AWE4 entry or part of it): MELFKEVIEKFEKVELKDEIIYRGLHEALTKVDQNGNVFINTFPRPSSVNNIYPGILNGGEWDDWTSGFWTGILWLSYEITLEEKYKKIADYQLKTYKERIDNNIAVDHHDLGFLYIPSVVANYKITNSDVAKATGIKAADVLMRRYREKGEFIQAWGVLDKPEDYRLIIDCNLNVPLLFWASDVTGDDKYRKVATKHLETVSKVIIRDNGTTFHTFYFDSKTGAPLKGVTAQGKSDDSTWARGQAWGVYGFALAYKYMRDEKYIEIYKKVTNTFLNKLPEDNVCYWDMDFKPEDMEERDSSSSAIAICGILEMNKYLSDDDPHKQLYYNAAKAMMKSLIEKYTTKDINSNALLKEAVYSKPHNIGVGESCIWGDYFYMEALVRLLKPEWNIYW
# TEST_DESCRIPTION: UGL enzyme assay, decrease of absorbance at […] nm
# Assay type: biochemical
READOUT_LABEL: UGL enzyme assay, decrease of absorbance at 235 nm (units/mg)

MOLECULE | TARGET_UNDER_TEST | VALUE_UNIT | DATA_VALUE
CC(=O)N[C@H]1C(O)O[C@H](CO)[C@H](O)[C@@H]1O[C@@H]1OC(C(=O)O)=C[C@H](O)[C@H]1O (stereo partly shown) | Smon0127 (Streptobacillus moniliformis) | units/mg | 4.46
CC(=O)N[C@H]1C(O)O[C@H](COS(=O)(=O)O)[C@H](O)[C@@H]1O[C@@H]1OC(C(=O)O)=C[C@H](O)[C@H]1O (stereo partly shown) | Smon0127 (Streptobacillus moniliformis) | units/mg | 0.272
CC(=O)N[C@H]1C(O)O[C@H](CO)[C@H](OS(=O)(=O)O)[C@@H]1O[C@@H]1OC(C(=O)O)=C[C@H](O)[C@H]1O (stereo partly shown) | Smon0127 (Streptobacillus moniliformis) | units/mg | 0.342
CC(=O)N[C@H]1C(O)O[C@H](CO)[C@@H](O)[C@@H]1O[C@@H]1OC(C(=O)O)=C[C@H](O)[C@H]1O (stereo partly shown) | Smon0127 (Streptobacillus moniliformis) | units/mg | 2.26
